Numbers sourced from ChEMBL document CHEMBL1667778.

assay: Clearance in Sprague-Dawley rat at 5 mg/kg, iv and 20 mg/kg, po; format: ADME, organism-based; settings: in vivo
quantityName: clearance (L/h/kg)
Field: numeric (L/h/kg). Do not append units.

*Q* Give a short answer stating reported clearance for CCOc1c2c(c(OCC)c3ccccc13)C(=O)N(c1ccc(CC3(NC(=O)NS(=O)(=O)c4c(Cl)cccc4Cl)CC3)cc1C)C2 .
*A* 0.66

----------
assay: Bioavailability in Sprague-Dawley rat at 5 mg/kg, iv and 20 mg/kg, po; assay type: ADME, organism-based; conditions: in vivo
quantityName: bioavailability (%)
Field: numeric (%). Do not append units.

*Q* Give a short answer stating reported bioavailability for CCOc1c2c(c(OCC)c3ccccc13)C(=O)N(c1ccc(CC3(NC(=O)NS(=O)(=O)c4c(Cl)cccc4Cl)CC3)cc1C)C2 .
*A* 84

----------
assay: AUC (0 to 24 hrs) in Sprague-Dawley rat at 20 mg/kg, po; type: ADME, organism-based; design: time < 24 hr, dose 20 mg/kg, route oral; conditions: plasma
quantityName: AUC(0-t) at 24 h
Hi, when you answer, please include the unit after the number. Thanks!

*Q* Give a short answer stating reported AUC(0-t) at 24 h for CCOc1c2c(c(OCC)c3ccccc13)C(=O)N(c1ccc(CC3(NC(=O)NS(=O)(=O)c4c(Cl)cccc4Cl)CC3)cc1C)C2 .
*A* 37.4 µM·h

----------
test: Elimination half life in Sprague-Dawley rat at 5 mg/kg, iv and 20 mg/kg, po; type: ADME, organism-based; settings: in vivo
quantityName: half-life (h)
Field: numeric (h). Do not append units.

*Q* Give a short answer stating reported half-life for CCOc1c2c(c(OCC)c3ccccc13)C(=O)N(c1ccc(CC3(NC(=O)NS(=O)(=O)c4c(Cl)cccc4Cl)CC3)cc1C)C2 .
*A* 6.6
